ASSAY_SYSTEM: T1, human CCR8 (human, UniProt P51685 1-355)
T1 construct: whole, on cells; construct used for the overexpressing cell lines is not described; also called hCCR8
T1 sequence (P51685 whole entry): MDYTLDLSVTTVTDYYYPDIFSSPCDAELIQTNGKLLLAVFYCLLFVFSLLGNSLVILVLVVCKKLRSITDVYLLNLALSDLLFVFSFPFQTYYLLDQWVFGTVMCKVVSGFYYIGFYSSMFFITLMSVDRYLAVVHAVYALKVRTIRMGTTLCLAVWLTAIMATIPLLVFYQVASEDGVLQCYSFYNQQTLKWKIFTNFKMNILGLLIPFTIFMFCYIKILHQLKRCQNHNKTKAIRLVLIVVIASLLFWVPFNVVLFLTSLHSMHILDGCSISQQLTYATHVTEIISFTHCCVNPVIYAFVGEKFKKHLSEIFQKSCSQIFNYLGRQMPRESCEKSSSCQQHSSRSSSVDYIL
PROTOCOL_DETAILS: FACS, CHO-K1-hCCR8 cells
pEC50: −log10 of the molar value.

{"BINDER": "PR006156 (antibody, human IgG1, kappa, V domains shown) VH: EVQLVESGGGLVKPGGSLRLSCAASGFTFSTYAMNWVRQAPGKGLEWVGRIRSKSNNYATYYADSVKDRFTISRDDSKSTLYLQMNSLKTEDTAVYYCVRGKEIGNYYAMDFWGQGTTVTVSS VL: DIVMTQSPLSLPVTLGQPASISCRSSKSLLHSNAKIYLYWFQQRPGQSPRLLIYRMSNLASGVPDRFSGSGSGTDFTLKISRVEAEDVGVYYCMQHLEYPLTFGQGTKLEIKR", "pEC50": 9.42}
{"BINDER": "PR004129 (antibody, human IgG1, kappa, V domains shown, chimeric, human IgG1 constant region) VH: EVQLVESGGGLVQPKGSLKLSCAASGFTFNTYAMNWVRQAPGKGLEWVARIRSKSNNYATYYADSVKDRFTISRDDSQSMLYLQMNNLKTEDTAMYYCVRGKDYGNYYAMDYWGQGTSVTVSS VL: DILLTQSPAILSVSPGERVSFSCRSSKSLLHSNGNTYLYWFLQRPGQSPQLLIYRMSNLASGVPDRFSGSGSGTAFTLRISRVEAEDVGVYYCMQHLEYPFTFGSGTKLEINR", "pEC50": 9.60}
{"BINDER": "PR006157 (antibody, human IgG1, kappa, V domains shown) VH: EVQLVESGGGLVKPGGSLRLSCAASGFTFSTYAMNWVRQAPGKGLEWVGRIRSKSNYYATYYADSVKDRFTISRDDSKSTLYLQMNSLKTEDTAVYYCVRGKEIGNYYAMDFWGQGTTVTVSS VL: DIVMTQSPLSLPVTLGQPASISCRSSKSLLHSNAKIYLYWFQQRPGQSPRLLIYRMSNLASGVPDRFSGSGSGTDFTLKISRVEAEDVGVYYCMQHLEYPLTFGQGTKLEIKR", "pEC50": 9.14}
{"BINDER": "PR006161 (antibody, human IgG1, kappa, V domains shown) VH: EVQLVESGGGLVKPGGSLRLSCAASGFTFSTYAMNWVRQAPGKGLEWVGRIRSKSNYYATYYADSVKDRFTISRDDSKSTLYLQMNSLKTEDTAVYYCVRGKEHGKYYAMDFWGQGTTVTVSS VL: DIVMTQSPLSLPVTLGQPASISCRSSKSLLHSNAKIYLYWFQQRPGQSPRLLIYRMSNLASGVPDRFSGSGSGTDFTLKISRVEAEDVGVYYCMQHLEYPLTFGQGTKLEIKR", "pEC50": 9.42}
{"BINDER": "PR004121 (antibody, human IgG1, kappa, V domains shown, chimeric, human IgG1 constant region) VH: EVQLVESGGGLVQPKGSLKLSCAASGFTFNTYAMNWVRQAPGKGLEWVARIRSKSNNYATYYADSVKDRFTISRDDSQNMLYLQMNNLKTEDTAMYYCVRGKENGNYYAMDFWGQGTSVTVSS VL: DIVITQAAPSVPVTPGESVSISCRSSKSLLHSNGNTYLYWFLQRPGQSPQLLIYRMSNLASGVPDRFSGSGSGTAFTLRISRVEAEDVGVYYCMQHLEYPFTFGGGTKLEMKR", "pEC50": 9.39}

All figures here come from patent US20240132603A1.
